Overview of recorded EC50 for various compounds
system: Bloodstream form of Trypanosoma brucei, strain Lister 427; assay: Trypanosoma brucei growth inhibition assay (CellTiter-Glo, 24 h); type: cell-based; details: Trypanosoma brucei; T. Brucei Growth Inibition Assay, class symbols; read-out: T. Brucei GI EC50

| Compound | EC50 |
| --- | --- |
| COc1ccc2nc(C(F)(F)F)n(CC(=O)N3CCN(CCn4cccn4)C[C@H]3c3ncc(-c4cc5ccccc5nc4OC)[nH]3)c2c1 | < 100 nM |
| COc1ccc2nc(C(F)(F)F)n(CC(=O)N3CCN(Cc4cn(C)nn4)CCC3c3ncc(-c4cc5ccccc5nc4OC)[nH]3)c2c1 (stereo not shown) | 100 to 500 nM |
| COc1nc2ccccc2cc1-c1cnc(C2CN(CC3CCOC3)CCN2C(=O)c2ccc(C3CCCO3)s2)[nH]1 (stereo not shown) | 1010 to 5000 nM |
| COc1ccc2nc(C(F)(F)F)n(CC(=O)N3CC[C@H](N)C[C@H]3c3ncc(-c4cc5ccccc5nc4OC)[nH]3)c2c1 | 1010 to 5000 nM |
| CCC(=O)CCCN1CCN(C(=O)Cc2c(C)[nH]c3ccc(OC)cc23)C(c2ncc(-c3cc4ccccc4nc3OC)[nH]2)C1 (stereo not shown) | < 100 nM |
| COc1ccc2nc(C(F)(F)F)n(CC(=O)N3CCN(Cc4ccnnc4)C[C@H]3c3ncc(-c4cc5ccccc5nc4OC)[nH]3)c2c1 | < 100 nM |
| COc1nc2ccccc2cc1-c1cnc(C2CN(CC3CCOC3)CCN2C(=O)c2nccc3ccccc23)[nH]1 (stereo not shown) | 1010 to 5000 nM |

The reported numbers originate from patent US10815222B2.
